Details: in water, 313.15 K

smiles-text: CN1C(C(=O)Nc2ccccn2)=C(O)c2sc(Cl)cc2S1(=O)=O
solubility (mole fraction): 7.27e-06

###

Settings: in ethylene glycol, 298.15 K

smiles-text: CN1C(C(=O)Nc2ccccn2)=C(O)c2sc(Cl)cc2S1(=O)=O
solubility (mole fraction): 0.000224

###

Conditions: in PEG-400, 303.15 K
property-name: solubility (mole fraction)

smiles-text: CN1C(C(=O)Nc2ccccn2)=C(O)c2sc(Cl)cc2S1(=O)=O
property-name: solubility (mole fraction)
assay-result: 0.0101

###

Conditions: in isopropanol, 303.15 K
property-name: solubility (mole fraction)

smiles-text: CN1C(C(=O)Nc2ccccn2)=C(O)c2sc(Cl)cc2S1(=O)=O
property-name: solubility (mole fraction)
assay-result: 1.16e-05

###

Conditions: in isopropanol, 298.15 K
property-name: solubility (mole fraction)

smiles-text: CN1C(C(=O)Nc2ccccn2)=C(O)c2sc(Cl)cc2S1(=O)=O
property-name: solubility (mole fraction)
assay-result: 9.05e-06

###

Details: in propylene glycol, 313.15 K

smiles-text: CN1C(C(=O)Nc2ccccn2)=C(O)c2sc(Cl)cc2S1(=O)=O
solubility (mole fraction): 4.5e-05

###

Details: in PEG-400, 313.15 K

smiles-text: CN1C(C(=O)Nc2ccccn2)=C(O)c2sc(Cl)cc2S1(=O)=O
solubility (mole fraction): 0.0129

###

Details: in propylene glycol, 298.15 K

smiles-text: CN1C(C(=O)Nc2ccccn2)=C(O)c2sc(Cl)cc2S1(=O)=O
solubility (mole fraction): 3.17e-05

###

Conditions: in transcutol, 323.15 K

smiles-text: CN1C(C(=O)Nc2ccccn2)=C(O)c2sc(Cl)cc2S1(=O)=O
solubility (mole fraction): 0.000743

###

Conditions: in water, 308.15 K
property-name: solubility (mole fraction)

smiles-text: CN1C(C(=O)Nc2ccccn2)=C(O)c2sc(Cl)cc2S1(=O)=O
assay-result: 5.52e-06

###

Conditions: in ethyl acetate, 323.15 K

smiles-text: CN1C(C(=O)Nc2ccccn2)=C(O)c2sc(Cl)cc2S1(=O)=O
solubility (mole fraction): 0.000121

###

Conditions: in transcutol, 313.15 K
property-name: solubility (mole fraction)

smiles-text: CN1C(C(=O)Nc2ccccn2)=C(O)c2sc(Cl)cc2S1(=O)=O
assay-result: 0.000552

###

Settings: in sec-butanol, 298.15 K
property-name: solubility (mole fraction)

smiles-text: CN1C(C(=O)Nc2ccccn2)=C(O)c2sc(Cl)cc2S1(=O)=O
assay-result: 2.99e-05

###

Conditions: in transcutol, 303.15 K

smiles-text: CN1C(C(=O)Nc2ccccn2)=C(O)c2sc(Cl)cc2S1(=O)=O
solubility (mole fraction): 0.000382

###

Conditions: in isopropanol, 323.15 K

smiles-text: CN1C(C(=O)Nc2ccccn2)=C(O)c2sc(Cl)cc2S1(=O)=O
solubility (mole fraction): 2.67e-05

###

Settings: in ethanol, 298.15 K

smiles-text: CN1C(C(=O)Nc2ccccn2)=C(O)c2sc(Cl)cc2S1(=O)=O
solubility (mole fraction): 8.43e-06

###

Settings: in ethylene glycol, 313.15 K

smiles-text: CN1C(C(=O)Nc2ccccn2)=C(O)c2sc(Cl)cc2S1(=O)=O
solubility (mole fraction): 0.000634

###

Settings: in isopropanol, 308.15 K

smiles-text: CN1C(C(=O)Nc2ccccn2)=C(O)c2sc(Cl)cc2S1(=O)=O
solubility (mole fraction): 1.45e-05
